# System: OVCAR-5 ovarian
# Method Summary: NCI-60 one-dose screen, 48 h (100 = growth as untreated, 0 = no growth, -100 = all killed)
# Condition Details: 10 µM unless noted
Compounds without any hit were thinned out: in the full panel of roughly 83,000, 20% have a hit.
Classify: fulfilled when growth is strictly less than 90%; not fulfilled when growth is not.

Lab note: growth threshold 90%. Does this compound come in strictly under it? Cc1nn(-c2ccccc2)c2ncnc(N/N=C/c3cccc(O)c3)c12
fulfilled

Lab note: growth threshold 90%. Does this compound come in strictly under it? CC1=N[C@@H]2CN(C(=O)OC(C)(C)C)C[C@@H]2n2c1cc1ccccc1c2=O
not fulfilled

Lab note: growth threshold 90%. Does this compound come in strictly under it? COC(=O)/C=C/c1c(C2(C)NC(=O)c3ccccc3N2)c(=O)oc2ccc(Cl)cc12 (stereo not given)
not fulfilled

Lab note: growth threshold 90%. Does this compound come in strictly under it? COc1ccccc1-n1cc(C#N)c(N)c1C(=O)c1ccc(Br)cc1
not fulfilled

Lab note: growth threshold 90%. Does this compound come in strictly under it? CCN(CC)CCn1c2ccc(O)cc2c2sc3cc(OC)ccc3c(=O)c21
fulfilled

Data provenance is PubChem BioAssay (NCI).
